details: basic group
READOUT_TYPE: pKa

In the examples that follow, each entry is paired with its recorded pKa.
O=[N+]([O-])c1ccc(O)c2ncccc12: 2.88
c1ccc(C2NCCS2)cc1 (configuration not stated): 5.2
CN1[C@@H](CC(=O)c2ccccc2)CCC[C@H]1C[C@@H](O)c1ccccc1: 8
O=C([O-])[C@@H](NCCN[C@@H](C(=O)[O-])c1ccccc1[O-])c1ccccc1[O-]: 11.9
COc1nc(N)c2ncn([C@H]3O[C@@H](CO)[C@H](O)[C@@H]3O)c2n1: 3.2

Record summary for COc1cc(N)cc(C(=O)N[C@@H]2C[C@H]3CC[C@@H](C2)N3Cc2ccccc2)c1OC : reported pKa = 9.07

Record summary for NNC(=O)[C@@H](N)Cc1ccccc1 : reported pKa = 7.06

Record summary for C/N=C1/CCCCC1C (configuration not stated) : reported pKa = 9.47

Record summary for Cc1[nH]cnc1CSCCNC(=[NH2+])NCCCc1c[nH]c[nH+]1 : reported pKa = 6.41

Record summary for COc1ccccc1/C(=N/CCCN(C)C)c1ccccc1 : reported pKa = 9

Record summary for O=C([O-])c1cc(-c2ccccc2)nnc1NCC[NH+]1CCOCC1 : reported pKa = 3.33

* * *

conditions: basic group
READOUT_TYPE: pKa
// keep it numeric: no unit symbol after the value

CC1=C(CC(C)NCC(O)c2ccc(C)cc2)CCC1(C)C (stereo unspecified): 8.71
CSCc1ccccn1: 5.4
[S-]c1ccc2ccccc2n1: 10.2
N[C@@H](CC(=O)[O-])C(=O)[O-]: 9.54
Oc1cc2cccnc2c2cccnc12: 3.9

Record summary for CCCCNCCN : reported pKa = 10.3

Record summary for CN(C)/C=N/c1cccc([N+](=O)[O-])c1 : reported pKa = 7.29

Record summary for CCN(CC)N(C)C : reported pKa = 6.88

Record summary for Nc1ccc2ncccc2c1 : reported pKa = 5.63

Record summary for O=C([O-])c1cccnc1 : reported pKa = 4.83

Record summary for CCc1nc2cc3c(cc2[nH]1)CCCC3 : reported pKa = 6.64

Record summary for [O-]c1ccc(F)cc1CN1CCCCC1 : reported pKa = 11.3

Record summary for CC1CC(/C=C2\CC(C)(C)CN2)=NC1(C)C (stereo unspecified) : reported pKa = 12.1

Record summary for [NH3+]CCCCCc1ccccn1 : reported pKa = 5.7

Record summary for Cc1cc([S-])ncn1 : reported pKa = 7.3

Record summary for [S-]c1ncc2nccnc2n1 : reported pKa = 6.52

* * *

conditions: basic group
Measured pKa, listed per entry.
// keep it numeric: no unit symbol after the value

c1cc(-c2ccncc2)ccn1: 4.82
Oc1ccccc1/C=N/c1ncc2nc[nH]c2n1: 3.38
N#Cc1ccc(N)c2ccccc12: 1.2
C[C@H](N)[C@@H](C)N: 9.88
Cn1ccc2ccccc2c1=O: -1.8

Record summary for CC(C)(C)n1ccnc1 : reported pKa = 7.35

Record summary for Cn1ccc2ccc3cccnc3c21 : reported pKa = 4.36

Record summary for N[C@H]1CCCCC[C@@H]1O : reported pKa = 9.35

Record summary for COC(=O)[C@@H]1[C@@H](O)C[C@H]2CC[C@@H]1N2C : reported pKa = 8.21

Record summary for Oc1onc2c1CCN(Cc1ccccc1)CC2 : reported pKa = 8

Record summary for CN(C)CCOCCN(C)C : reported pKa = 9.8

Record summary for CC(=O)Nc1cccc2cc3ccccc3nc12 : reported pKa = 3

Record summary for Cc1ccccc1/C(=N\CCC[NH+](C)C)c1ccccc1Cl : reported pKa = 3.37

Record summary for Cc1ccc([C@@H](OCCN(C)C)c2ccccc2)cc1 : reported pKa = 8.5

Record summary for CCC(C)(N)C(=O)[O-] (centres undefined) : reported pKa = 9.98

Record summary for CCCCCCCCCCCCCCN : reported pKa = 10.6

Record summary for CCC/C(N)=C/C(=O)c1ccccc1 : reported pKa = -1.12

Record summary for CO/N=C(\C)CC(C)(C)NCC[NH2+]C(C)(C)C/C(C)=N/O : reported pKa = 6.28

Record summary for C=C(C)C(=O)OCCN(C(C)C)C(C)C : reported pKa = 8.77

Record summary for N#CC(C#N)=NNc1ccccc1Cl : reported pKa = -0.77

Record summary for Nc1cccc(N)c1O : reported pKa = 5.5

Record summary for CN(C)c1ncc(-c2ccccc2)s1 : reported pKa = 4.89

Record summary for CCCNCCC : reported pKa = 11

Record summary for CCCCCCCCCCCCCCN(CC(C)O)CC(C)O (centres undefined) : reported pKa = 8.4

Record summary for NC(CC(=O)[O-])c1ccccn1 (centres undefined) : reported pKa = 9.22

Record summary for Cc1ccccc1/C(=N\CCC[NH+](C)C)c1ccccc1-c1ccccc1 : reported pKa = 4.67

Record summary for CNC(C)C(=O)[O-] (centres undefined) : reported pKa = 10.2

* * *

Measured pKa, listed per entry.
conditions: basic group

Record summary for c1coc(CNc2ncnc3[nH]ncc23)c1 : reported pKa = 4.01

Record summary for CCOCCNc1ccc(Cl)cc1 : reported pKa = 3.28

Record summary for C(=C\c1ccncc1)/c1ccccc1 : reported pKa = 5.97

* * *

settings: basic group
READOUT_TYPE: pKa
// keep it numeric: no unit symbol after the value

In the examples that follow, each entry is paired with its recorded pKa.
CNCCCCc1ccccc1: 10.8
O=C(O)c1cscn1: 2.9
CC(=O)SCCN(C)C: 8.27
[S-]c1ccnc([S-])n1: 11.2
Cc1cc(O)n(-c2nc(C)c(C)c([O-])n2)n1: 10.3
Nc1c2ccccc2nc2c(N)cccc12: 9.3

Record summary for O=[N+]([O-])c1ccc(NO)cc1 : reported pKa = 0.65

Record summary for CC1(N)C[C@]1(C)N (stereo partly drawn) : reported pKa = 9.03

* * *

conditions: basic group
READOUT_TYPE: pKa

In the examples that follow, each entry is paired with its recorded pKa.
Nc1ccc2c(c1)Cc1cccc(O)c1-2: 4.73
CCCCN(C)N(C)CCCC: 7.16
Nc1ccc(-c2ncc(-c3ccccc3)o2)cc1: 3.01

Record summary for C[C@@H]1CNC[C@H](C)N1 : reported pKa = 9.86

Record summary for C[C@H](CCCNCc1ccccc1)[C@H]1CC[C@H]2[C@@H]3[C@@H](O)C[C@@H]4C[C@H](O)CC[C@]4(C)[C@H]3CC[C@]12C : reported pKa = 9.05

Record summary for COc1ccc(C(O)CNC(C)CC2=C(C)C(C)(C)CC2)cc1 (centres undefined) : reported pKa = 8.79

Record summary for Cc1ccc(N)cc1C[NH3+] : reported pKa = 4.67

Record summary for CCC(C)(N)CC : reported pKa = 10.9

Record summary for CC1=C(CC(C)NCC(O)c2ccccc2)CCC1(C)C (centres undefined) : reported pKa = 8.84

Record summary for O=[N+]([O-])c1cc(CN2CCOCC2)c([O-])c2ccccc12 : reported pKa = 7.98

Record summary for NCCc1ccccn1 : reported pKa = 9.51

Record summary for FC(F)(F)c1cc(-c2ccccc2)nnc1NCC[NH+]1CCOCC1 : reported pKa = 1.44

* * *

Measured pKa, listed per entry.
conditions: basic group

In the examples that follow, each entry is paired with its recorded pKa.
NCCC(=O)NCCc1c[nH]cn1: 9.21
c1c[nH]c(Cc2ncc[nH]2)n1: 7.27
CC(C)(C)NC[C@H](O)COc1nsnc1N1CCOCC1: 9.7
CN1CSC[C@H]1C(=O)[O-]: 6.6
Cc1ccc(C)c(NN=C(C#N)C#N)c1: -0.84

Record summary for Cc1cc(-c2ncc[nH]2)n[nH]1 : reported pKa = 6.16

* * *

Measured pKa, listed per entry.
conditions: acidic group
// keep it numeric: no unit symbol after the value

In the examples that follow, each entry is paired with its recorded pKa.
O=C(O)c1ccccc1F: 3.6
O=C(O)Cc1nnnn1-c1ccccc1: 3.1
C=CCC1(C2C=CCCC2)C(=O)[N-]C(=S)NC1=O (configuration not stated): 12.2
Cc1cc(C)[nH]n1: 15
CCC/C=C(\C)C(=O)O: 5.13
CCc1c(-c2ccccc2)nn(C2CC[NH+](C)CC2)c1O: 5.9

Record summary for CCCCc1c(-c2ccccc2)nn(-c2ccccc2)c1O : reported pKa = 7.2

* * *

settings: basic group
Where a SMILES comes first, the peptide text is derived from it.
Rule: pKa under 6 gives rule not met, otherwise rule met.

Cc1[nH]c2ccc(N)cc2[nH+]1: rule not met
N[C@@H](Cc1c[nH]c2ccccc12)C(=O)[O-]: rule met
CCCCCCCCCCCCCCCCCCCCCCN: rule met
CC(C)C[C@H](N)C(=O)N[C@@H](Cc1c[nH]cn1)C(=O)[O-] (H-Leu-His-OH): rule met
CC(C)(N)C#N: rule not met
CCCNC(=O)[C@H](Cc1c[nH]cn1)NC(=O)c1cccc(CNCC[NH3+])n1: rule met
Nc1ccnc(-c2ccccn2)c1: rule met
Nc1c2ccccc2nc2cccc([N+](=O)[O-])c12: rule met
O=C([O-])CCc1nc2ccccc2[nH]1: rule not met
c1ccc2c(c1)CNCCCNCc1ccccc1OCCO2: rule met

Task: Textbook exercise: given the entry CC(C)(CN)CN , state whether its pKa is greater than or equal to 6.
Result: rule met

Task: Textbook exercise: given the entry C#C[C@]1(O)C[C@@H](C)N[C@@H]2CCCC[C@H]21 , state whether its pKa is greater than or equal to 6.
Result: rule met

Task: Textbook exercise: given the entry Cc1cc(-c2ccccc2)nn2cc(C[NH+]3CCOCC3)nc12 , state whether its pKa is greater than or equal to 6.
Result: rule not met

Task: Textbook exercise: given the entry NCCc1cnc[nH]1 , state whether its pKa is greater than or equal to 6.
Result: rule met

Task: Textbook exercise: given the entry COCCN(CCOC)c1ccccc1 , state whether its pKa is greater than or equal to 6.
Result: rule not met

Task: Textbook exercise: given the entry O=[N+]([O-])c1cc(-c2ccccc2)nnc1NCC[NH+]1CCOCC1 , state whether its pKa is greater than or equal to 6.
Result: rule not met

Task: Textbook exercise: given the entry O/N=C(/NO)c1ccccc1 , state whether its pKa is greater than or equal to 6.
Result: rule not met

Task: Textbook exercise: given the entry CCOC(=O)COc1ccc(C(=O)c2ccc([O-])c(CN)c2)c(Cl)c1Cl , state whether its pKa is greater than or equal to 6.
Result: rule met

Task: Textbook exercise: given the entry CC1(C)CC(=O)C=C(N2CCCC2)C1 , state whether its pKa is greater than or equal to 6.
Result: rule not met

Task: Textbook exercise: given the entry NCCC[NH3+] , state whether its pKa is greater than or equal to 6.
Result: rule met

Task: Textbook exercise: given the entry CCOC(=O)CCCN , state whether its pKa is greater than or equal to 6.
Result: rule met

FYI, the data here is from the pKa sets of Baltruschat and Czodrowski (2020).
